Tested on: midbrain pp38
assayText: Midbrain pp38 protein expression in MPTP Parkinson's disease model mouse (western-blotting)
Assay type: in vivo
conditionInfo: midbrain total protein, GAPDH internal reference, gavage 21 days after MPTP modeling
This section presents molecules with their documented Expression (pp38/GAPDH) values.
Reply briefly: the number, and no unit.

Sample answers from the record:
molecule="CCN(CC)C(=O)Oc1ccc(/C=C/S(=O)(=O)Cc2ccc(Cl)cc2)cc1OC(=O)N(CC)CC [Compound D1-1]" reportedendpoint="Expression (pp38/GAPDH)" numericvalue=0.50
molecule=C=CCOc1ccc(C/C=C/S(=O)(=O)/C=C/c2ccc(OC(C)=O)c(OC(=O)N(CC=C)CC=C)c2)cc1 reportedendpoint="Expression (pp38/GAPDH)" numericvalue=0.44
molecule="CN(C)c1ccc(CC(=O)Oc2cc(/C=C/S(=O)(=O)C(Br)c3ccc(Cc4ccc(N(C)C)cc4)cc3)ccc2OC(=O)N2CCCC2C(F)(F)F)cc1 (stereo not drawn)" reportedendpoint="Expression (pp38/GAPDH)" numericvalue=0.29
molecule="CCOC(CS(=O)(=O)/C=C/c1ccc(OC(C)=O)c(OC(=O)Nc2ccc(NC)cc2)c1)C(OCC)c1ccc(OCc2ccccc2)c(O)c1 (stereo not drawn)" reportedendpoint="Expression (pp38/GAPDH)" numericvalue=0.43
molecule="CC(Br)C(Br)COc1cc(/C=C/S(=O)(=O)CCc2ccc(OCC(F)(F)F)cc2)ccc1OC(=O)Nc1ccsc1 (stereo not drawn)" reportedendpoint="Expression (pp38/GAPDH)" numericvalue=0.35

Please find the next molecule below.
Using the record for CNC(=O)Oc1ccc(/C=C/S(=O)(=O)CC(Cl)c2ccc(Cl)c([N+](=O)[O-])c2)cc1O (stereo not drawn) [Compound E2-2] , report its Expression (pp38/GAPDH).
0.43

###

Tested on: midbrain pp38
assayText: Midbrain pp38 protein expression in MPTP Parkinson's disease model mouse (western-blotting)
Type: in vivo
conditionInfo: midbrain total protein, GAPDH internal reference, gavage 21 days after MPTP modeling
Method: Neurotoxins can be used to establish PD animal models. Currently, 1-methyl-4-phenyl-1,2,3,6-tetrahydropyridine (MPTP) is the sole synthetic toxin which is recognized to induce PD symptoms in human and non-human primates and in mice. […] Half of experiment mice in each group were taken to extract the total midbrain protein, and the change in the midbrain phosphorylated p38 protein expression was determined by western-blotting using GAPDH as the internal reference. […]
# Expression (pp38/GAPDH) per entry
Answer field: number only, no words.

compound="CCN(CC)C(=O)Oc1ccc(/C=C/S(=O)(=O)CCCc2ccccc2)cc1OC(=O)N(CC)CC [Compound C1-1]" testtarget="midbrain pp38" reportedendpoint="Expression (pp38/GAPDH)" numericvalue=0.63
compound="COCCN(C)C(=O)Oc1cc(/C=C/S(=O)(=O)CCc2cccc(-c3ccc(C)o3)c2)ccc1OC(C)=O [Compound J1-4]" testtarget="midbrain pp38" reportedendpoint="Expression (pp38/GAPDH)" numericvalue=0.41
compound="O=S(=O)(/C=C/c1ccc(O)c(O)c1)Cc1ccc(C(F)(F)F)cc1 [Compound 3B, reference compound]" testtarget="midbrain pp38" reportedendpoint="Expression (pp38/GAPDH)" numericvalue=1.18

Now look at this entry.
Entry O=S(=O)(/C=C/c1ccc(O)c(O)c1)CCCc1ccccc1 [Compound 3C, reference compound] : reported Expression (pp38/GAPDH) = ?
0.85

###

System: primary glial cells
assayText: Inhibition of the NO release of primary glial cells induced by LPS
Type: cell-based, rat
conditionInfo: Rattus norvegicus, Glial cell; 20 μM; read-out: NO inhibition (%)
Threshold check on inhibition at 20 µM: at or above 70% gives fulfilled, strictly below gives not fulfilled.

compound="O=S(=O)(/C=C/c1ccc(O)c(O)c1)CCCc1ccccc1 [Compound 3C, reference compound]" testtarget="primary glial cells" classification="not fulfilled"

Does the reported inhibition at 20 µM for O=S(=O)(/C=C/c1ccc(O)c(O)c1)Cc1ccc(C(F)(F)F)cc1 [Compound 3B, reference compound] fall at or above the 70% mark?
fulfilled

Check if inhibition at 20 µM >= 70% (inclusive). Item: CC(C)(C)c1ccc(CS(=O)(=O)/C=C/c2ccc(O)c(O)c2)cc1 [Compound 3G, reference compound]
fulfilled

Check this compound for inhibition at 20 µM at or above 70%: COc1cc(/C=C/S(=O)(=O)Cc2cc(OC)c(OC)c(OC)c2)ccc1OC(=O)N(c1ccccc1)c1ccccc1 [Compound K3-3]
fulfilled

In plain terms: is recorded inhibition at 20 µM at least 70% for CC(Br)C(Br)COc1cc(/C=C/S(=O)(=O)CCc2ccc(OCC(F)(F)F)cc2)ccc1OC(=O)Nc1ccsc1 (stereo not drawn) [Compound K1-3] ?
fulfilled

Determine whether measured inhibition at 20 µM meets or exceeds 70% for CN(C)c1ccc(CC(=O)Oc2cc(/C=C/S(=O)(=O)C(Br)c3ccc(Cc4ccc(N(C)C)cc4)cc3)ccc2OC(=O)N2CCCC2C(F)(F)F)cc1 (stereo not drawn) [Compound M1-5]
not fulfilled

Is it the case that CCN(CC)C(=O)Oc1ccc(/C=C/S(=O)(=O)Cc2ccc(C(F)(F)F)cc2)cc1OC(=O)N(CC)CC [Compound B1-1] has inhibition at 20 µM reaching or exceeding 70%?
fulfilled

Exam item: decide whether the reported inhibition at 20 µM for CCN(CC)C(=O)Oc1ccc(/C=C/S(=O)(=O)CCCc2ccccc2)cc1OC(=O)N(CC)CC [Compound C1-1] is at least 70%.
not fulfilled

API: above_or_equal(metric=inhibition at 20 µM, cutoff=70%) for item CC[Si](CC)(Oc1ccc(C(Cl)S(=O)(=O)/C=C/c2ccc(OC(=O)N3CC(C)OC(C)C3)c(OC(=O)c3cccc(Cl)c3OC)c2)cc1)c1ccccc1 (stereo not drawn) [Compound R1-5]
fulfilled

###

System: midbrain pp38
assayText: Midbrain pp38 protein expression in MPTP Parkinson's disease model mouse (western-blotting)
Type: in vivo
conditionInfo: midbrain total protein, GAPDH internal reference, gavage 21 days after MPTP modeling
reportedEndpoint: Expression (pp38/GAPDH)
Please give only the number in your answer, with no unit.

structurestring=O=C(NC(=O)C(F)(F)F)Oc1ccc(/C=C/S(=O)(=O)C(F)(F)c2ccc(Oc3ccccn3)cc2)cc1OC(=O)C(F)(F)C(F)(F)F numericvalue=0.28
structurestring=COc1cc(/C=C/S(=O)(=O)Cc2cc(OC)c(OC)c(OC)c2)ccc1OC(=O)N(c1ccccc1)c1ccccc1 numericvalue=0.55

# query: Expression (pp38/GAPDH) of entry `CC(=O)Oc1ccc(/C=C/S(=O)(=O)Cc2c(F)c(F)c(F)c(F)c2F)cc1OC(=O)NC(=O)c1ccc([N+](=O)[O-])c(C)c1`
0.61

###

Listed next: entries and their corresponding Expression (CD11b/GAPDH).
Tested on: midbrain CD11b
assayText: Midbrain CD11b protein expression in MPTP Parkinson's disease model mouse (western-blotting)
Type: in vivo
conditionInfo: midbrain, MPTP Parkinson's disease model mouse, western-blotting
Keep the answer to the number alone.

Would you please look over these solved cases?
compound="O=S(=O)(/C=C/c1ccc(O)c(O)c1)CCCc1ccccc1 [Compound 3C, reference compound]" numericvalue=1.02
compound="CC(C)(C)c1ccc(CS(=O)(=O)/C=C/c2ccc(O)c(O)c2)cc1 [Compound 3G, reference compound]" numericvalue=0.67
compound=COCCN(C)C(=O)Oc1cc(/C=C/S(=O)(=O)CCc2cccc(-c3ccc(C)o3)c2)ccc1OC(C)=O numericvalue=0.75

For the compound `CC(C)N(c1ccc(CCS(=O)(=O)/C=C/c2ccc(OC(=O)N(C)c3ccc(I)cc3)c(OCCOCc3ccccc3)c2)cc1)C(C)C` , what Expression (CD11b/GAPDH) is on record?
1.12

What value of Expression (CD11b/GAPDH) has been recorded for this entry: CCN(C)C(=O)Oc1ccc(/C=C/S(=O)(=O)CC(c2ccc(-c3ccc(OC)c(OC)c3)cc2)[N+](=O)[O-])cc1OC(=O)N(C)CC (stereo not drawn)
0.46

What Expression (CD11b/GAPDH) value was documented for this compound, CC(Br)C(Br)COc1cc(/C=C/S(=O)(=O)CCc2ccc(OCC(F)(F)F)cc2)ccc1OC(=O)Nc1ccsc1 (stereo not drawn) ?
1.01

# Expression (CD11b/GAPDH) lookup, item COc1ccc(CC(=O)Oc2ccc(/C(C)=C/S(=O)(=O)/C=C/c3ccc(OC(=O)N(C)C)c(O[Si](C)(C)CCl)c3)cc2)cc1 [Compound P1-7]
0.39

Expression (CD11b/GAPDH) for `CCN(CC)C(=O)Oc1ccc(/C=C/S(=O)(=O)Cc2ccc(C(F)(F)F)cc2)cc1OC(=O)N(CC)CC` ?
0.41

###

Tested on: hippocampus CD11b
assayText: Number of hippocampus microglial cells with CD11b positive expression in MPTP Parkinson's disease model mouse (immunohistochemistry)
Type: in vivo
conditionInfo: hippocampus, MPTP Parkinson's disease model mouse, immunohistochemistry
Some compounds, each annotated with its measured Positive cell number (microglial cells with CD11b positive expression).
Just the number, please.

Worked examples follow.
compound="COCCN(C)C(=O)Oc1cc(/C=C/S(=O)(=O)CCc2cccc(-c3ccc(C)o3)c2)ccc1OC(C)=O [Compound J1-4]" numericvalue=10
compound="C=CCOc1ccc(C/C=C/S(=O)(=O)/C=C/c2ccc(OC(C)=O)c(OC(=O)N(CC=C)CC=C)c2)cc1 [Compound K1-4]" numericvalue=13
compound="CC(C)(C)c1ccc(CS(=O)(=O)/C=C/c2ccc(O)c(O)c2)cc1 [Compound 3G, reference compound]" numericvalue=18
compound="CC(Br)C(Br)COc1cc(/C=C/S(=O)(=O)CCc2ccc(OCC(F)(F)F)cc2)ccc1OC(=O)Nc1ccsc1 (stereo not drawn) [Compound K1-3]" numericvalue=16
compound="Cc1ccc(S(=O)(=O)Oc2ccc(CS(=O)(=O)/C=C/c3ccc(OS(=O)(=O)c4ccc(C)cc4)c(OC(=O)N(C)S(=O)(=O)c4ccc(C)cc4)c3)cc2)cc1 [Compound S6-6]" numericvalue=9

Any idea what Positive cell number (microglial cells with CD11b positive expression) was measured for CCN(CC)C(=O)Oc1ccc(/C=C/S(=O)(=O)Cc2ccc(Cl)cc2)cc1OC(=O)N(CC)CC [Compound D1-1] ?
7

Param item = O=C(NC(=O)C(F)(F)F)Oc1ccc(/C=C/S(=O)(=O)C(F)(F)c2ccc(Oc3ccccn3)cc2)cc1OC(=O)C(F)(F)C(F)(F)F [Compound L1-4] ; retrieve measured Positive cell number (microglial cells with CD11b positive expression).
15

What Positive cell number (microglial cells with CD11b positive expression) value was documented for this compound, CNC(=O)Oc1ccc(/C=C/S(=O)(=O)CC(Cl)c2ccc(Cl)c([N+](=O)[O-])c2)cc1O (stereo not drawn) [Compound E2-2] ?
15

Form field: reported Positive cell number (microglial cells with CD11b positive expression) of CCOC(CS(=O)(=O)/C=C/c1ccc(OC(C)=O)c(OC(=O)Nc2ccc(NC)cc2)c1)C(OCC)c1ccc(OCc2ccccc2)c(O)c1 (stereo not drawn) [Compound H2-4]
7
